biological target: polypeptide consisting of the amino acid sequence of SEQ ID NO: 2 (Homo sapiens, UniProt Q9HCF6, R1695Q); assay: Calcium influx with calcium-sensitive fluorescent reagent (Fluo3-AM, FLIPR) in HEK293 transformants; settings: method of Example 6; read-out: EC50 of activation (calcium influx)
Sequence (Q9HCF6 154-1707 isoform Q9HCF6-2 R1670Q): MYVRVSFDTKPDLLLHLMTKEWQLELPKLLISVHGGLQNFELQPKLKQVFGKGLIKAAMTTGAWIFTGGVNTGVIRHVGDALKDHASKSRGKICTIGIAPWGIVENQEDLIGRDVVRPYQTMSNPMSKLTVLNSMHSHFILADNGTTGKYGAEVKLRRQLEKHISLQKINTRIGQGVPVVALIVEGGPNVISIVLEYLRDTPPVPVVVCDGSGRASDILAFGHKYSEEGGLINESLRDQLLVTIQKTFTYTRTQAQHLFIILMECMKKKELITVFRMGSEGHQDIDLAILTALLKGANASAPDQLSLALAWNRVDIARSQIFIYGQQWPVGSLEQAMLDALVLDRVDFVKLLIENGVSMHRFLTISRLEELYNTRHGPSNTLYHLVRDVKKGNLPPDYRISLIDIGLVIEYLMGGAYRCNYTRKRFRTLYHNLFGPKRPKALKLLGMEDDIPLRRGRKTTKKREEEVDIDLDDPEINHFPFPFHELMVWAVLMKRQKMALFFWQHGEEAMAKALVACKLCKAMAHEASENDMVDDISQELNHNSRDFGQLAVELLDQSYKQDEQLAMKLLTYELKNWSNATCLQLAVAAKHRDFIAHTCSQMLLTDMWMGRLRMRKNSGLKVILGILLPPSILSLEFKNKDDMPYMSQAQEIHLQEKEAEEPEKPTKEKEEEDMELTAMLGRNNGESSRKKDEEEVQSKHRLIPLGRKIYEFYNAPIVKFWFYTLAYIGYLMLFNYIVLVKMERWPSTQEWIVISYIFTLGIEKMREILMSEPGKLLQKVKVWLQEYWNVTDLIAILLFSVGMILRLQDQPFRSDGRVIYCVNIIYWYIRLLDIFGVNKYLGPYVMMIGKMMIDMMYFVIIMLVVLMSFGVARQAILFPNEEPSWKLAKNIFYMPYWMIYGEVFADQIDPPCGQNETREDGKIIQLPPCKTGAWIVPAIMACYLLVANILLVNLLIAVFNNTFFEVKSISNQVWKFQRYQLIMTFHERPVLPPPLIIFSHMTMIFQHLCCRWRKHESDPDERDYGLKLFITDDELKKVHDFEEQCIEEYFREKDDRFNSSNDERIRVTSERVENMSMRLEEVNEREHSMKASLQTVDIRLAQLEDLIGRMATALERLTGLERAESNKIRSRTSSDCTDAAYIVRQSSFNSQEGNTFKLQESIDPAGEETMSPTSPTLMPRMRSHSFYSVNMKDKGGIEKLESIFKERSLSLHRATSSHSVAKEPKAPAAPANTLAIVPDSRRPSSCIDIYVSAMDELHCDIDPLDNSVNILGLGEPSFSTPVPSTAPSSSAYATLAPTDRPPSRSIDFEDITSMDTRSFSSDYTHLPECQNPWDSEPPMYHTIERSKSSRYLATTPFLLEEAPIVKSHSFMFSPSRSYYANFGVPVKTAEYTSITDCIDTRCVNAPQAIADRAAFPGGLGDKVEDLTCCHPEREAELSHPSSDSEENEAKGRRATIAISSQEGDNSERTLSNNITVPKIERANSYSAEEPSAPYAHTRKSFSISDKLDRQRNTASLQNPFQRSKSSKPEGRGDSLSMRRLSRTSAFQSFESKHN
Quantity measured: EC50 (µM)

In the examples that follow, each entry is paired with its recorded EC50.
>>> df
                  compound_structure_string  recorded_measurement
0  CCN(C(=O)N(C)c1c(-c2c(Cl)cccc2Cl)noc1C)c1ccccc1                   9.8
1         Fc1cccc(F)c1-n1c(CN2CCCCC2)csc1=S                   6.8

A = CC(=O)c1sccc1NC(=O)CSCc1c(F)cccc1Cl
B = Fc1cccc(F)c1-n1c(CN2CCCC2)csc1=S
Input: // returns A or B , whichever has the lower EC50 Choose, then provide that item's label.
Output: B
